Every entry's value here was drawn from ChEMBL document CHEMBL5335851.

# SUBJECT_OF_TEST: Signal transducer and activator of transcription 6 (Homo sapiens, UniProt P42226)
# Sequence (P42226 whole entry): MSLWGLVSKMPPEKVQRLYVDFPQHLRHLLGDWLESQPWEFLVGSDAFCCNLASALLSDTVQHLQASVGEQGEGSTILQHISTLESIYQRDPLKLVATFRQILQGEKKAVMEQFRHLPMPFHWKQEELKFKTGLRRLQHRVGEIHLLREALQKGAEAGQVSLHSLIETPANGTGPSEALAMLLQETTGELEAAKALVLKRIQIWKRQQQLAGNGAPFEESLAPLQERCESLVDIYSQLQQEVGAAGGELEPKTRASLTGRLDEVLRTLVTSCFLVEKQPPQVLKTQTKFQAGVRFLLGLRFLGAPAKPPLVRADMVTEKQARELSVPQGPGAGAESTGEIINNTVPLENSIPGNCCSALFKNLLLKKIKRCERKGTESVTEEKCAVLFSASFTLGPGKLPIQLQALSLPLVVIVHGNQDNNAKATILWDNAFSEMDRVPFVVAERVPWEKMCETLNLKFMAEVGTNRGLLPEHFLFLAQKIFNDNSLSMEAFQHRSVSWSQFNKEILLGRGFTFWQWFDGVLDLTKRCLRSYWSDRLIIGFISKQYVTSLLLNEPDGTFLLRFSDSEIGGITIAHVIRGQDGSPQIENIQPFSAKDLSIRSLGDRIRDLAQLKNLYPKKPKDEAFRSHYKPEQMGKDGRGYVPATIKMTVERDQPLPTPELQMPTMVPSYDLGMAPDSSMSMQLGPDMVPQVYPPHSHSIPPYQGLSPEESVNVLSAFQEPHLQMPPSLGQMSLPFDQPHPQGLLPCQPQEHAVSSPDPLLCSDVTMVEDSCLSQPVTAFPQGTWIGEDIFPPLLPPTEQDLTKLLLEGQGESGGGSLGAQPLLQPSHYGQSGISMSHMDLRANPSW
# EXPERIMENT_NOTES: Inhibition of IL-4 induced STAT6 signaling in human HepG2 cells harboring pRL-EF1alpha, pGL3-TK-7xN4 and TOPO-Stat6 plasmid assessed as luciferase activity incubated for 24 hrs
pIC50: −log10 of the molar value.
METRIC: pIC50

The following compounds have reported results that may help.
# COMPOUND, SUBJECT_OF_TEST, pIC50
records = [
    ("C/C1=C\\CCC(C)(C)C(C)OC(=O)Cc2c(Cl)c(O)cc(O)c2C1=O (centres undefined)", "Signal transducer and activator of transcription 6 (Homo sapiens, UniProt P42226)", 7.10),
    ("C/C1=C\\CCC(C)(O)C(C)OC(=O)Cc2c(Cl)c(O)cc(O)c2C1=O (centres undefined)", "Signal transducer and activator of transcription 6 (Homo sapiens, UniProt P42226)", 7.17),
]

I. C/C1=C\CC[C@H](C)[C@@H](C)OC(=O)Cc2c(Cl)c(O)cc(O)c2C1=O
II. C/C1=C\C[C@@H](O)[C@H](C)[C@@H](C)OC(=O)Cc2c(Cl)c(O)cc(O)c2C1=O
### Prompt Quick check, higher pIC50 between I and II ? API: response body contains the label of the selected item.
### Response I
(I: 7.70, II: 7.25)

---

# SUBJECT_OF_TEST: Mothers against decapentaplegic homolog 2/homolog 3 (Homo sapiens, UniProt P84022+Q15796)
# EXPERIMENT_NOTES: Inhibition of TGF-beta induced Smad2/3 signaling in human HepG2 cells harboring pRL-EF1alpha, (CAGA)9x-MLP-Luc plasmid assessed as luciferase activity incubated for 24 hrs
# Assay type: cell-based
METRIC: IC50 (nM)

The following molecules have reported results that may help.
# TEST_SMILES, SUBJECT_OF_TEST, UNIT_OF_MEASUREMENT, IC50
rows = [
    ("C/C1=C/C[C@H](O)[C@H](C)[C@@H](C)OC(=O)Cc2c(Cl)c(O)cc(O)c2C1=O", "Mothers against decapentaplegic homolog 2/homolog 3 (Homo sapiens, UniProt P84022+Q15796)", "nM", 68),
    ("C/C1=C/C[C@@H](O)[C@H](C)[C@@H](C)OC(=O)Cc2c(Cl)c(O)cc(O)c2C1=O", "Mothers against decapentaplegic homolog 2/homolog 3 (Homo sapiens, UniProt P84022+Q15796)", "nM", 100),
]

1. C/C1=C\C[C@H](O)[C@H](C)[C@@H](C)OC(=O)Cc2c(Cl)c(O)cc(O)c2C1=O
2. C/C1=C\C[C@H](O)[C@H](C)[C@H](C)OC(=O)Cc2c(Cl)c(O)cc(O)c2C1=O
3. C/C1=C\C[C@@H](O)[C@H](C)[C@H](C)OC(=O)Cc2c(Cl)c(O)cc(O)c2C1=O
### Prompt Hello, I need these entries ordered by IC50, highest reading first. Thanks! List the labels in the requested order.
### Response 3, 2, 1
(3: 240 nM, 2: 140 nM, 1: 68 nM)
